assay: OD615 S. cerevisiae growth inhibition, permissive medium, pilot counter-assay, permissive growth control for S. cerevisiae lifespan shortening project (AID 705); settings: OD615, 24 h, at 10 µM, active compounds read high
Property: growth inhibition (%)
Provide only the numeric value, understood in %.

>>> experimental_result("Cc1ccc(Nc2cc(C)nc3nc(C)nn23)cc1")
-3.6

growth inhibition for O=C1c2ccccc2-c2nc3ncnn3c(-c3ccccc3Cl)c21 is -6.53

Field growth inhibition (entry COc1ccc(-c2nc(CS(=O)CC(=O)NCc3ccco3)c(C)o2)cc1OC (stereo not drawn) ) reads 1.38

Memo: CC1=C(C(=O)OC(C)C)C(c2c(O)ccc3ccccc23)NC(=O)N1 (stereo not drawn) , reported growth inhibition: 2.06

Recorded growth inhibition (molecule Cc1cccc(Cn2c(N3CCCCC3C)nc3c2c(=O)[nH]c(=O)n3C)c1 (stereo not drawn) ): -17.5

According to the records, this molecule O=C1c2ccccc2C(Nc2ccc(Cl)cn2)N1c1ccccn1 (stereo not drawn) displays growth inhibition of -15.4

get_value(item= O=C(CC1(O)C(=O)Nc2ccccc21)c1ccccc1 (stereo not drawn) , readout=growth inhibition) returns 1.47

Item: Cc1ccc(-c2nc(=S)c3c(n2Cc2ccco2)CC(C)(C)OC3)cc1 | growth inhibition: -13.2

Record c1ccc(-c2nnc(SCc3nc4ccccc4[nH]3)n2Cc2ccco2)nc1 . Reported growth inhibition: -0.44

// CC1=C(C(=O)OCc2ccc3c(c2)OCO3)C(c2ccccc2)NC(=O)N1 (stereo not drawn) : growth inhibition value = -12

====

test: Restrictive medium S. cerevisiae growth inhibition, OD615, pilot screen of yeast lifespan reduction project, restrictive growth control (AID 706); conditions: OD615, 48 h, at 10 µM, active compounds read high;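 also: modified DeaD lifespan yeast strain shifted to restrictive glucose medium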
// values below are reported growth inhibition
A number alone suffices; assume %.

>>> experimental_result("Cc1cc(C)c(NC(=O)C(C)(C)C)c(Cl)c1")
6.2
>>> experimental_result("Cc1cc(C)cc(N(CC(=O)NCc2ccco2)S(=O)(=O)c2c(C)noc2C)c1")
-17.1

get_value(item= CCN1CCN(C(=O)C2CCN(S(=O)(=O)c3cccc4cccnc34)CC2)CC1 , readout=growth inhibition) returns 2.11

The molecule Cc1nn(-c2ccccc2)c2sc(C(=O)n3cccn3)cc12 showed growth inhibition equal to -9.12

Lab note: O=c1c2c(nc3c(-c4ccccc4)c[nH]n13)CCCC2 gave growth inhibition of -8.55

Summary for this molecule, CCC(=O)Nc1c2c(nn1-c1cccc(Cl)c1)CSC2 : growth inhibition is -8.67

Measured growth inhibition of O=C(c1cc(-c2cccs2)on1)N1CCCc2ccccc21 : -4.53

Lab note: CN1CCc2c(sc3nc(SCC(=O)N4CCOCC4)nc(N)c23)C1 gave growth inhibition of 0.52

// sample c1ccc(-c2csc3nnc(SCc4ccc5c(c4)OCO5)n23)cc1 , its growth inhibition was 64.5

growth inhibition in this record for CN1CCN(Cc2nc3c(c(=O)n(C)c(=O)n3C)n2CCc2ccccc2)CC1 : -4.14

For reference, reported growth inhibition for O=C1CN(C(=O)c2ccc(Br)o2)C(c2ccccc2)c2cc(Br)ccc2N1 (stereo unspecified) stands at -12.8

====

assay: viability gain of MRP-1-high H69AR cells under doxorubicin, pilot screen, MRP-1 activator project, CellTiter-Glo, duplicate (AID 807); conditions: H69AR viability with doxorubicin, CellTiter-Glo luminescence; at 10 µM; active compounds read high;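 also: compound pretreatment 18-22 h then 72 h combined with doxorubicin; 0% = doxorubicin alone and 100% = vehicle without doxorubicin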
The source made the active and inactive calls.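 The calls were made as follows: active = viability increase at or above a cutoff of the median across tested compounds plus 3 SD (cut at about 8.5% in these data, passing the limit was not always enough); inconclusive = some gains above the cutoff, reason not given; inactive = the rest.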
Property: viability increase

>>> experimental_result("CCC(NC(=O)c1ccccc1NC(=O)c1ccco1)C(=O)NC1CCCCC1 (stereo not drawn)")
"-2.29% (inactive)"
>>> experimental_result("CCOC(=O)C1=C(C)N=c2s/c(=C\\c3ccncc3)c(=O)n2C1c1ccc2c(c1)OCO2 (stereo not drawn)")
"-7.87% (inactive)"
>>> experimental_result("O=C(C1CCCCC1)N1CCN(c2ncccn2)CC1")
"0.21% (inactive)"

response.value for Cc1cc(NC(=O)c2ccc3c(c2)C(=O)N(C2CCCCC2)C3=O)no1 (field: viability increase) = -6.76% (inactive)

Per the record, CCOc1ccc(NC(=O)CSc2nnc(Cn3c(=O)sc4ccccc43)n2C)cc1 has viability increase of -2.49% (inactive)

Field viability increase (entry CC1=C(C(=O)OC(C)C)C(c2ccc(Br)s2)NC(=O)N1C (stereo not drawn) ) reads 0.85% (inactive)

Notebook: O=S(=O)(NCCSc1nnc(-c2ccco2)n1-c1ccccc1)c1ccccc1 , viability increase read as -3.53% (inactive)

The compound Cc1ccc(C2CC(c3ccccc3C)n3nc(N)nc3N2)cc1 (stereo not drawn) showed viability increase equal to -0.57% (inactive)
